Tested on: NCI-H522 lung
method.description: NCI tumour cell line growth inhibition, 48 h
assay.readout: TGI (µM)
Provide only the numeric value, understood in µM.

Previously resolved entries follow.
Cc1cc(I)cc(CN(C)CCCN2CCCCC2)c1O; 31.4
COC(=O)C1=C(C)NC(C)=C(C(=O)OCCCN2CCC(c3ccccc3)(c3ccccc3)CC2)C1c1cccc([N+](=O)[O-])c1 (stereo unspecified); 4.72
Cc1cc(N(CCOS(C)(=O)=O)CCOS(C)(=O)=O)ccc1C=O; 0.379

Q) Reported TGI for Fc1cc2[nH]ncc2c2c3c(c(-c4cn[nH]c4)nc12)CCCC3 : what is it?
A) 6.12
